System: Plasmodium berghei
Test: Screen against P. berghei liver stage (PbLuc), transformed with Luciferase, at 10uM
Format: functional, HepG2
Details: tested at 10 uM
About 8,600 (12%) of roughly 69,000 compounds showed an effect of 50% or more. Shown is part of a subset that was picked to be rich in strong results.
propertyName: INHIBITION (%)

>>> df
                             compoundsmiles  datavalue
0  CN(C)S(=O)(=O)N1CC[C@]2(C[C@H](OCc3ccncc3)CO2)C1       57.1
1  Cc1cccc(CO[C@H]2CO[C@@]3(CCN(S(=O)(=O)N(C)C)C3)C2)n1       55.5
2  CN(C)S(=O)(=O)N1C[C@@H](Oc2ccccn2)[C@H]2OCCC[C@H]21      -4.74
3  CN(C)S(=O)(=O)N1C[C@@H](OCc2ccccn2)[C@H]2OCCC[C@H]21       56.1
4  CN(C)S(=O)(=O)N1CC[C@]2(C[C@@H](Oc3cccnc3)CO2)C1       21.8
